target: Neuronal acetylcholine receptor; alpha4/beta2 (Rattus norvegicus, UniProt P09483+P12390)
Sequence (P09483 whole entry): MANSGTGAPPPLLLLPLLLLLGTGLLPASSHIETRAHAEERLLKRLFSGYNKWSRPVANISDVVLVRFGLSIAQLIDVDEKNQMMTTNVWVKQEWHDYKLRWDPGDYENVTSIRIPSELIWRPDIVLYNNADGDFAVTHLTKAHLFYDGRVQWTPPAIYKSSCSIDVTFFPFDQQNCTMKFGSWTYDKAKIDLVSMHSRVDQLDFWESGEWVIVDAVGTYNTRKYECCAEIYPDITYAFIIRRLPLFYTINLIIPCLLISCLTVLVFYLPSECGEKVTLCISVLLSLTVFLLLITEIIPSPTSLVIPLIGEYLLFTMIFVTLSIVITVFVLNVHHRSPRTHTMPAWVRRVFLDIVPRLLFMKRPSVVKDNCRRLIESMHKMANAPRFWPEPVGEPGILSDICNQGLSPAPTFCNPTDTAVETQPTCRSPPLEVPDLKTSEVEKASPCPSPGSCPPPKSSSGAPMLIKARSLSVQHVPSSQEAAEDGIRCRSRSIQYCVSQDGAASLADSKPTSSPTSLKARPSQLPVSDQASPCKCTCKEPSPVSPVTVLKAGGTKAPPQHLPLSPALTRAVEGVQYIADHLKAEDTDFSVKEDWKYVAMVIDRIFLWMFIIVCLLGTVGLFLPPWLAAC
Sequence (P12390 whole entry): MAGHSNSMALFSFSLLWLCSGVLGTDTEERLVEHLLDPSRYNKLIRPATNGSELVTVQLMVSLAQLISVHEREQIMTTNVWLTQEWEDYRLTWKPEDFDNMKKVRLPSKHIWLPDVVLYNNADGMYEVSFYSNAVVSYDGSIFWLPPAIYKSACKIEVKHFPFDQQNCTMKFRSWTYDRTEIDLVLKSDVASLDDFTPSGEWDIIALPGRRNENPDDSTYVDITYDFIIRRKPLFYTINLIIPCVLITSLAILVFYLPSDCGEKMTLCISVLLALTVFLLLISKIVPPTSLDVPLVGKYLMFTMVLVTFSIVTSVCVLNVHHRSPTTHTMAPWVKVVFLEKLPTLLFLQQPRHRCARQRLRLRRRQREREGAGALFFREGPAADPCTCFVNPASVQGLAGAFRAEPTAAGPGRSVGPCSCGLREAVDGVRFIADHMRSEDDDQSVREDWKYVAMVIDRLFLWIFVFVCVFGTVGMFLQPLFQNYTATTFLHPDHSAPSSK
assay-text: Displacement of [3H]cytisine from alpha-4-beta-2 in rat cerebral cortical membrane
Format: cell membranes
run-conditions: read-out: Ki
parameter: pKi
Please keep in mind that pKi is minus log10 of the molar concentration; only the number is needed.

Answered cases to consult:
c1cncc(N2CC3CNCC2C3)c1 (stereo not given): 10.19
Clc1ccc(N2C[C@@H]3C[C@H]2CN3)cc1: 7.66

Lookup: GET /values?readout=pKi&item= NC(=O)c1cncc(N2C[C@@H]3C[C@H]2CN3)c1
Found: 7.62

Lookup: Note, next up: O=[N+]([O-])c1cccc(N2C[C@@H]3C[C@H]2CN3)c1
Found: 6.22

---

assay-text: Drug level in Sprague-Dawley rat plasma at 6.2 umol/kg, ip after 60 mins
Type: ADME, organism-based
parameter: concentration at 1 h (µg/mL)
Write the answer as a number in µg/mL, unit excluded.

Lookup: GET /values?readout=concentration at 1 h&item= Oc1cc(N2C[C@H]3C[C@@H]2CN3)cnc1Cl
Found: 0.131

---

assay-text: Drug levels in Sprague-Dawley rat plasma at 6.2 umol/kg, ip after 15 mins
Type: ADME, organism-based
parameter: concentration at 0.25 h
Record the result as number plus unit.

Lookup: GET /values?readout=concentration at 0.25 h&item= Oc1cc(N2C[C@H]3C[C@@H]2CN3)cnc1Cl
Found: 458 ng/mL

---

pKi listing for selected compounds.
target: Neuronal acetylcholine receptor; alpha4/beta2 (Rattus norvegicus, UniProt P09483+P12390)
assay-text: Displacement of [3H]cytisine from alpha-4-beta-2 in rat cerebral cortical membrane
Format: cell membranes
run-conditions: read-out: Ki
Please keep in mind that pKi is minus log10 of the molar concentration; only the number is needed.

Oc1cc(N2C[C@@H]3C[C@H]2CN3)cnc1Cl: 8.80
Cc1ccc(N2C[C@@H]3C[C@H]2CN3)cn1: 8.80
Oc1cc(N2C[C@H]3C[C@@H]2CN3)cnc1Cl: 9.77
Clc1cc(N2C[C@H]3C[C@@H]2CN3)cnc1Cl: 10.74
Nc1ccc(N2CC3CC2CN3)cn1 (centres undefined): 7.70
c1cnc2cc(N3C[C@H]4C[C@@H]3CN4)sc2c1: 9.08
c1ccc(N2C[C@@H]3C[C@H]2CN3)nc1: 6.01
COc1cc(N2C[C@H]3C[C@@H]2CN3)cnc1Cl: 10.00
Fc1ccc(N2C[C@@H]3C[C@H]2CN3)cn1: 9.77
c1cnc2c(N3C[C@H]4C[C@@H]3CN4)csc2c1: 6.55

Lookup: GET /values?readout=pKi&item= c1ccc(N2C[C@@H]3C[C@H]2CN3)cc1
Found: 6.00

Lookup: Note, next up: Oc1cncc(N2C[C@H]3C[C@@H]2CN3)c1
Found: 10.46

Lookup: Note, next up: c1ncc(N2C[C@@H]3C[C@H]2CN3)cn1
Found: 9.02

Lookup: Note, next up: Oc1cncc(N2C[C@@H]3C[C@H]2CN3)c1
Found: 8.40

---

target: Neuronal acetylcholine receptor; alpha4/beta2 (Homo sapiens, UniProt P17787+P43681)
Sequence (P17787 whole entry): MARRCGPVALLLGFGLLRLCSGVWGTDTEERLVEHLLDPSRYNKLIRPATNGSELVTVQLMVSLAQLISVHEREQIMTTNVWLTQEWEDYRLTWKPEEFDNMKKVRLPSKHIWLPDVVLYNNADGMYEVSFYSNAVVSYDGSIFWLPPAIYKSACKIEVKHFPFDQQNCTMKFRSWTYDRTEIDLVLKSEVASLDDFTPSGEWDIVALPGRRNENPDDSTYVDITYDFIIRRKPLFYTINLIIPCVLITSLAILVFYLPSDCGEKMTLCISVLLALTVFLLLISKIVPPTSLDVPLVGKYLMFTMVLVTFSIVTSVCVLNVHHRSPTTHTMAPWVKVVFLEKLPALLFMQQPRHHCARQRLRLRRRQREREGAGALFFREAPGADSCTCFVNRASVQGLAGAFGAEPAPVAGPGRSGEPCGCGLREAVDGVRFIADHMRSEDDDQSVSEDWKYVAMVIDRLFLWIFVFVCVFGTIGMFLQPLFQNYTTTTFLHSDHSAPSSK
Sequence (P43681 whole entry): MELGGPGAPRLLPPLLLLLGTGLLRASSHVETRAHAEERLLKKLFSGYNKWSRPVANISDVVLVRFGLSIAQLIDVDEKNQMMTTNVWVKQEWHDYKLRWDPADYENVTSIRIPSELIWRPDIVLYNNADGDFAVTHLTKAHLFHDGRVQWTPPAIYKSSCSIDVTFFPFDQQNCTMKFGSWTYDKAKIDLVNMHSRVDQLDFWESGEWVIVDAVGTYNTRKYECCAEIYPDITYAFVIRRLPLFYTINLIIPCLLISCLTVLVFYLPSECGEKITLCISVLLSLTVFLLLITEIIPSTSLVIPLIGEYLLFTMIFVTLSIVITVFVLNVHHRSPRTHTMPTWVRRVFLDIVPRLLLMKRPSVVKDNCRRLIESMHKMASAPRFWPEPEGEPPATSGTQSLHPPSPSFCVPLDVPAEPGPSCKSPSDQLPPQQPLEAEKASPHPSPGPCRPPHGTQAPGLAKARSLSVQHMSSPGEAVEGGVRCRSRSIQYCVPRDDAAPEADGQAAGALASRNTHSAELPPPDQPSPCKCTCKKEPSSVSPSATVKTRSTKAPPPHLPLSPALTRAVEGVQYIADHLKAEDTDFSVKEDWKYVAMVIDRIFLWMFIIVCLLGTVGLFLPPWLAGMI
assay-text: Agonist activity at […] in IMR-32cells assessed as calcium influx by FLIPR assay
Assay type: functional
run-conditions: read-out: EC50
parameter: EC50

Answered cases to consult:
Clc1ccc(N2CC3CC2CCN3)cn1 (stereo not drawn): 7.44 µM
C[N+]1(C)CC2CC1CN2c1ccc(Cl)nc1 (stereo not drawn): 1.5 µM
O=[N+]([O-])c1ccc(N2C[C@@H]3C[C@H]2CN3)cn1: 11 µM

Lookup: Which measured EC50 belongs to Oc1cncc(N2C[C@@H]3C[C@H]2CN3)c1 , tested on Neuronal acetylcholine receptor; alpha4/beta2 (Homo sapiens, UniProt P17787+P43681)?
Found: > 100 µM

Lookup: Note, next up: Cc1ccc(N2C[C@@H]3C[C@H]2CN3)cn1
Found: 1.7 µM

Lookup: Note, next up: Clc1ccc(N2C[C@H]3C[C@@H]2CN3)cn1
Found: 0.14 µM
